- SYSTEM TESTED: TYK2 (Homo sapiens, UniProt P29597)
- Sequence (P29597 whole entry): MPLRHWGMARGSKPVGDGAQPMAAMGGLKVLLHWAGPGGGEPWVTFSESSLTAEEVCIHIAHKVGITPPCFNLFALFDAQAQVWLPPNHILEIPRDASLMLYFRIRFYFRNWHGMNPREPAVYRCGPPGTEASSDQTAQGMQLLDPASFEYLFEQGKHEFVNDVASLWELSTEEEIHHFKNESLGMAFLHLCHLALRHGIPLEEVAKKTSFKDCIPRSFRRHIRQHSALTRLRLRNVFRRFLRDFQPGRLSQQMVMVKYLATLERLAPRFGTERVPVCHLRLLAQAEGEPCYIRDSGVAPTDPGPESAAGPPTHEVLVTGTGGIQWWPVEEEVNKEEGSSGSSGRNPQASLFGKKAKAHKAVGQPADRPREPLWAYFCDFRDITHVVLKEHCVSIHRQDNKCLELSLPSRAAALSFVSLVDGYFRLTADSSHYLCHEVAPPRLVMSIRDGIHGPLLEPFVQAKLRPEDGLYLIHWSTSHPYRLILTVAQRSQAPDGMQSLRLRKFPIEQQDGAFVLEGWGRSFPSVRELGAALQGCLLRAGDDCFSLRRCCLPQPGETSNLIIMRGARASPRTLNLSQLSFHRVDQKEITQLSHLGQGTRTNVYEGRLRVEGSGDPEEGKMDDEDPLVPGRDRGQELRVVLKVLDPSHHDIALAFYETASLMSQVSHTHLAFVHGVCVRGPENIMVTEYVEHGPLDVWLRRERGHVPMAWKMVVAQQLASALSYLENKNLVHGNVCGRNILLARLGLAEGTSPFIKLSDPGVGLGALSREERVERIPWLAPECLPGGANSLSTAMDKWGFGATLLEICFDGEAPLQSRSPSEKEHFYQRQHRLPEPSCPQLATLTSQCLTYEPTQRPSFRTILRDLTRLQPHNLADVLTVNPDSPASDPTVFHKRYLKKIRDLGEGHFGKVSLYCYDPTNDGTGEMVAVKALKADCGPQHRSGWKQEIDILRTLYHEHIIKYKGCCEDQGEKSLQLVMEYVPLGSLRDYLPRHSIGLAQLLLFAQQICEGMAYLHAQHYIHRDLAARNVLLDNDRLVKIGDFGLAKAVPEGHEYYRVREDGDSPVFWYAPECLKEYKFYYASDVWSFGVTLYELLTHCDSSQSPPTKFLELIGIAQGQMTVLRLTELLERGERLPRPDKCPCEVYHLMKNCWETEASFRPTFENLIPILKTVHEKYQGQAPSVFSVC
- METHOD: TYK2 kinase inhibition (Table A1)
- Format: biochemical
- CONDITION: Table D1
Task for the reader: assign each of the following compounds its reported pIC50.
In plain terms, pIC50 is the concentration in mol/L turned into minus its base-10 logarithm.

Noted for Clc1cnc2nc1Nc1cccc(c1)CNc1cccc(c1)N2 [Example D17, bis(trifluoroacetate)] : its pIC50 reads 7.11

// O=S(=O)(c1ccccc1F)N1CCC(CCNc2ccc3cc2CCc2cncc(c2)Nc2ncc(Cl)c(n2)N3)CC1 [Example D221, tris(trifluoroacetate)] : pIC50 value = 7.23

* * *

For each entry below, report its pIC50 value.
- SYSTEM TESTED: human JAK3 (a.a. 781-1124) (Homo sapiens)
- Construct: JAK3 (a.a. 781-1124); His tag (N); made in house; host or cells: insect cells (baculovirus)
- METHOD: In vitro JAK kinase assay (HTRF, phosphorylation of a biotinylated peptide), JAK3
- Assay type: biochemical
- CONDITION: method AA1 (3 μM ATP) or AA2 (1000 μM ATP), not stated per value
pIC50: −log10 of the molar value.

Entry Cc1cc(N2CCC(CC(=O)Nc3ccc4cc3CCc3cncc(c3)Nc3ncc(Cl)c(n3)N4)CC2)no1 [Example A247, bis(trifluoroacetate)] ; pIC50 = < 6.70

# pIC50 of O=C(CC1CCN(C(=O)c2ccncc2)CC1)Nc1ccc2cc1CCc1cccc(c1)Nc1ncc(Cl)c(n1)N2 [Example A185, bis(trifluoroacetate)] = < 6.70

What the record says about O=C(CC1CCN(c2ccccc2)CC1)Nc1ccc2cc1CCc1cncc(c1)Nc1ncc(Cl)c(n1)N2 [Example A219, tris(trifluoroacetate)] : pIC50 is < 6.70

In plain terms, O=C(CC1CCN(c2cccc(F)n2)CC1)Nc1ccc2cc1CCc1cncc(c1)Nc1ncc(Cl)c(n1)N2 [Example A181, tris(trifluoroacetate)] has a documented pIC50 of < 6.70

Lab book: pIC50 of N#Cc1c(Cl)cccc1N1CCC(CC(=O)Nc2ccc3cc2CCc2cncc(c2)Nc2ncc(Cl)c(n2)N3)CC1 [Example A222, tris(trifluoroacetate)] noted as < 6.70

// recorded pIC50 for O=C(CC1CCN(S(=O)(=O)c2ccccc2OC(F)(F)F)CC1)Nc1ccc2cc1CCc1cncc(c1)Nc1ncc(Cl)c(n1)N2 [Example A227, bis(trifluoroacetate)] : < 6.40

Note to self: pIC50 recorded for O=C(CC1CCN(C(=O)Nc2ccccc2F)CC1)Nc1ccc2cc1CCc1cncc(c1)Nc1ncc(Cl)c(n1)N2 [Example A146, bis(trifluoroacetate)] was < 7.00

* * *

- SYSTEM TESTED: human JAK2 (a.a. 828-1132) (Homo sapiens, UniProt O60674)
- Construct: JAK2 (a.a. 828-1132); His tag (N); made in house; host or cells: insect cells (baculovirus)
- Sequence (O60674 828-1132): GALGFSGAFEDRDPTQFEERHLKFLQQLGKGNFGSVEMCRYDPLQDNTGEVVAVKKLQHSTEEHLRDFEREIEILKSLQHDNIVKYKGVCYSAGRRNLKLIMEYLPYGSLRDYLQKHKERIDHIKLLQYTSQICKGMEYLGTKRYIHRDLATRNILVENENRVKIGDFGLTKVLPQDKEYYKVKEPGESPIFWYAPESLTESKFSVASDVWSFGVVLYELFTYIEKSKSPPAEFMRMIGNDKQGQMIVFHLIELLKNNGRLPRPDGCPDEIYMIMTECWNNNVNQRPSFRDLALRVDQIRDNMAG
- METHOD: In vitro JAK kinase assay (HTRF, phosphorylation of a biotinylated peptide), JAK2
- Type: biochemical
- CONDITION: method AA1 (30 μM ATP) or AA2 (1000 μM ATP), not stated per value
MEASURED ATTRIBUTE: IC50

Note to self: IC50 recorded for Cc1cc(C)c(C#N)c(N2CCC(CC(=O)Nc3ccc4cc3CCc3cncc(c3)Nc3ncc(Cl)c(n3)N4)CC2)n1 [Example A239, tris(trifluoroacetate)] was 226 nM

O=C(CC1CCN(c2ccncc2)CC1)Nc1ccc2cc1CCc1cncc(c1)Nc1ncc(Cl)c(n1)N2 [Example A242, tris(trifluoroacetate)] has a reported IC50 of > 400 nM

Measured IC50, O=C(COc1ccc2cc1CCc1cncc(c1)Nc1ncc(Cl)c(n1)N2)N1CCn2c(nnc2C(F)(F)F)C1 [Example A249, bis(trifluoroacetate)] : > 400 nM

Entry under test: N#Cc1ccc(N2CCC(CC(=O)Nc3ccc4cc3CCc3cncc(c3)Nc3ncc(Cl)c(n3)N4)CC2)cc1 [Example A221, tris(trifluoroacetate)] . Its IC50 was > 200 nM

Entry CC(C)c1oncc1C(=O)N1CCC(CC(=O)Nc2ccc3cc2CCc2cncc(c2)Nc2ncc(Cl)c(n2)N3)CC1 [Example A218, bis(trifluoroacetate)] — recorded IC50 = > 200 nM

IC50 reading for O=C(CC1CCN(C(=O)c2cccnc2)CC1)Nc1ccc2cc1CCc1cncc(c1)Nc1ncc(Cl)c(n1)N2 [Example A188, tris(trifluoroacetate)] : > 200 nM

Lab note: measured IC50 of O=C(CC1CCN(S(=O)(=O)c2ccccc2OC(F)(F)F)CC1)Nc1ccc2cc1CCc1cncc(c1)Nc1ncc(Cl)c(n1)N2 [Example A227, bis(trifluoroacetate)] was > 400 nM

* * *

- SYSTEM TESTED: human JAK3 (a.a. 781-1124) (Homo sapiens, UniProt P52333)
- Construct: JAK3 (a.a. 781-1124); His tag (N); made in house; host or cells: insect cells (baculovirus)
- Sequence (P52333 781-1124): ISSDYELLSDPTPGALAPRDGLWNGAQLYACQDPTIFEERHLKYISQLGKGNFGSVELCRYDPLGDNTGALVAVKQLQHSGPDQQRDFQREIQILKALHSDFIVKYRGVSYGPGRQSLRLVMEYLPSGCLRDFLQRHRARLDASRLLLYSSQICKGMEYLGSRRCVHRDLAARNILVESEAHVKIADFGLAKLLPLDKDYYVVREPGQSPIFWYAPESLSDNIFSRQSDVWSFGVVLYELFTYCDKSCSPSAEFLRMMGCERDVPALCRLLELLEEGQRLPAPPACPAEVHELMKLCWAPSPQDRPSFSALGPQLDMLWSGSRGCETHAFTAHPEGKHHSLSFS
- METHOD: In vitro JAK kinase assay (HTRF, phosphorylation of a biotinylated peptide), JAK3
- Format: biochemical
- CONDITION: method AA1 (3 μM ATP) or AA2 (1000 μM ATP), not stated per value
Provide the recorded IC50 for the entries that follow.

So, O=C(CC1CCN(c2nncs2)CC1)Nc1ccc2cc1CCc1cccc(c1)Nc1ncc(Cl)c(n1)N2 [Example A183, bis(trifluoroacetate)] ? Its IC50 was > 200 nM

The recorded IC50 for entry N#Cc1cccc(S(=O)(=O)N2CCC(CC(=O)Nc3ccc4cc3CCc3cncc(c3)Nc3ncc(Cl)c(n3)N4)CC2)c1 [Example A228, bis(trifluoroacetate)] equals > 400 nM

Per the record, Cc1cc(C)c(C#N)c(N2CCC(CC(=O)Nc3ccc4cc3CCc3cncc(c3)Nc3ncc(Cl)c(n3)N4)CC2)n1 [Example A239, tris(trifluoroacetate)] has IC50 of > 400 nM

Briefly, IC50 measured for Cn1cnc(S(=O)(=O)N2CCC(CC(=O)Nc3ccc4cc3CCc3cncc(c3)Nc3ncc(Cl)c(n3)N4)CC2)c1 [Example A229, bis(trifluoroacetate)] : > 400 nM

IC50 for Cc1noc(C)c1C(=O)N1CCC(CC(=O)Nc2ccc3cc2CCc2cncc(c2)Nc2ncc(Cl)c(n2)N3)CC1 [Example A156, bis(trifluoroacetate)] is > 10000 nM

* * *

- SYSTEM TESTED: human JAK1 (a.a. 837-1142) (Homo sapiens, UniProt P23458)
- Construct: human JAK1 (a.a. 837-1142); His tag (N); made in house; host or cells: insect cells (baculovirus)
- Sequence (P23458 849-1154): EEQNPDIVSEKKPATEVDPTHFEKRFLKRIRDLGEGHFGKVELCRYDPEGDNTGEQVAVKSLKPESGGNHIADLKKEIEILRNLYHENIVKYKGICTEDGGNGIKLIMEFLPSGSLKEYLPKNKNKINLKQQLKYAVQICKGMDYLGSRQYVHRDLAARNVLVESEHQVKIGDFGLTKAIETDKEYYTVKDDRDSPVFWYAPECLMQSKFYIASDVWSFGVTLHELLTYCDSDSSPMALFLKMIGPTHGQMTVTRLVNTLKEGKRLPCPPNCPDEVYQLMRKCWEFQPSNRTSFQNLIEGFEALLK
- METHOD: In vitro JAK kinase assay (HTRF, phosphorylation of a biotinylated peptide), JAK1
- Format: biochemical
- CONDITION: Table D1; read-out: JAK1 IC50
Counter-ions that a name gives are not always drawn.
I'd appreciate it if you could supply pIC50 values for the items below.
Would you please state pIC50, meaning minus log10 of the concentration in mol/L, as a bare number?

In plain terms, Clc1cnc2nc1Nc1cccc(c1)OCCc1cc(cc(-c3ccnc(N4CCNCC4)c3)c1)N2 [Example D27, tris(trifluoroacetate)] has a documented pIC50 of 8.82

// pIC50 lookup, molecule = O=C1CCc2cccc(c2)Nc2nc(ncc2Cl)Nc2cccc(c2)N1 [Example D76, trifluoroacetate] , result: 7.96

pIC50 recorded for this molecule, O=C(CC1CN(C(=O)c2nc[nH]n2)C1)Nc1ccc2cc1CCc1cncc(c1)Nc1ncc(Cl)c(n1)N2 [Example D147, bis(trifluoroacetate)] , is 7.59

# molecule O=C(COc1ccc2cc1CCc1cncc(c1)Nc1ncc(Cl)c(n1)N2)N1CCN(c2ccncc2)CC1 [Example D243, tris(trifluoroacetate)] ; its pIC50 = 7.22

Field pIC50 (entry Clc1cnc2nc1Nc1cccc(c1)SCCNc1cccc(c1)N2 [Example D80, bis(trifluoroacetate)] ) reads 8.13

Given item O=C(CC1CN(c2nncs2)C1)Nc1ccc2cc1CCc1cncc(c1)Nc1ncc(Cl)c(n1)N2 [Example D151, tris(trifluoroacetate)] , the value recorded as its pIC50 is 7.12

Record Cc1cc(C(=O)N2CCN(C(=O)COc3ccc4cc3CCc3cncc(c3)Nc3ncc(Cl)c(n3)N4)CC2)no1 [Example D251, bis(trifluoroacetate)] , field pIC50: 7.74

The molecule listed as N#Cc1ccc(NC(=O)N2CC[C@@H](CC(=O)Nc3ccc4cc3CCc3cncc(c3)Nc3ncc(Cl)c(n3)N4)C2)cc1 [Example D114, bis(trifluoroacetate)] has a reported pIC50 of 8.05

Field pIC50 (entry O=C(COc1ccc2cc1CCc1cncc(c1)Nc1ncc(Cl)c(n1)N2)N1CCN(C(=O)C2CCCO2)CC1 (stereo not shown) [Example D272, bis(trifluoroacetate)] ) reads 7.42

// sample Clc1cnc2nc1Nc1cccc(c1)CCOc1cccc(c1)N2 [Example D5, trifluoroacetate] , its pIC50 was 7.52

* * *

Give pIC50 for every item shown.
- SYSTEM TESTED: Recombinant Human Anaplastic Lymphoma Kinase (Homo sapiens)
- Construct: purchased Invitrogen, Carlsbad, Calif
- Sequence (Q9UM73 19-1620): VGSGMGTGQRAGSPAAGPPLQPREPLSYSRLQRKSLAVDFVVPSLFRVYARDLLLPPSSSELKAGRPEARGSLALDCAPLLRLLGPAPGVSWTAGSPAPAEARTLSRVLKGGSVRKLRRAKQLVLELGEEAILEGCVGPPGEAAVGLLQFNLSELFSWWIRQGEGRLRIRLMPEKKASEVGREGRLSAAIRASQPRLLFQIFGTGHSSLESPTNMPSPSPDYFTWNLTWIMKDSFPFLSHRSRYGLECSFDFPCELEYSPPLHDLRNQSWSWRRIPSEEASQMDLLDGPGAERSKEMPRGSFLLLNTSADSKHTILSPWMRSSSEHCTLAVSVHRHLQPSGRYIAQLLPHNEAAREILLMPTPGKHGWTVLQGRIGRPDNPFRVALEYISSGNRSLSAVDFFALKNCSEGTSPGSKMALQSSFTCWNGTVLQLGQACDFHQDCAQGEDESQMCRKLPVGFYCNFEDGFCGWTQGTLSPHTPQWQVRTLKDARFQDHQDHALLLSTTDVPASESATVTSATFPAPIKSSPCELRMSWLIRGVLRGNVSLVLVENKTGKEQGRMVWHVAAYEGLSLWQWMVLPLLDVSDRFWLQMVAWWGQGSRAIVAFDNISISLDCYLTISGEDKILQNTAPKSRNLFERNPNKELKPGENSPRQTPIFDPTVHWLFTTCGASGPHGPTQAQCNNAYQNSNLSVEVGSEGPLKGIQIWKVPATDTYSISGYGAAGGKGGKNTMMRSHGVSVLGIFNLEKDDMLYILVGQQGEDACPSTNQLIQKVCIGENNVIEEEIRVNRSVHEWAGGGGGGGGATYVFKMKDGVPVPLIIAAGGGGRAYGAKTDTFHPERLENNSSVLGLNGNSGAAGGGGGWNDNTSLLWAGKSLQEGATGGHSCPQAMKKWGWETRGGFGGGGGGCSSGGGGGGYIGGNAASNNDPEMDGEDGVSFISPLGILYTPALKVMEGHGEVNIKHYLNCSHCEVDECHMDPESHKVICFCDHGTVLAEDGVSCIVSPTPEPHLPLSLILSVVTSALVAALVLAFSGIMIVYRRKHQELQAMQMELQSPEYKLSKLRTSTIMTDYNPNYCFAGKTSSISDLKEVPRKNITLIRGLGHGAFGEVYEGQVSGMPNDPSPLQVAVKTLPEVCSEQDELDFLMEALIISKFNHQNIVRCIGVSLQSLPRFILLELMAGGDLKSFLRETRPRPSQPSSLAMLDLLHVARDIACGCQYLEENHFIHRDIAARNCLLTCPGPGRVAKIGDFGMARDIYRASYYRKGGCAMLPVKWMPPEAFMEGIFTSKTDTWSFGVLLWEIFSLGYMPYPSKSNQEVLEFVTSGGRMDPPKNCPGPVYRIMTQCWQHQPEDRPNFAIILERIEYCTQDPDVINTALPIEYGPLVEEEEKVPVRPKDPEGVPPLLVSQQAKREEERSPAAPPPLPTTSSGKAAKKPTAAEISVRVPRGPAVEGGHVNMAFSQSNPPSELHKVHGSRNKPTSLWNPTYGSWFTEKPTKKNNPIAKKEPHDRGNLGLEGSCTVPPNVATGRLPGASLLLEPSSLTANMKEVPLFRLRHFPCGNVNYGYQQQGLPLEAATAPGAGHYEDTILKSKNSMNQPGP
- METHOD: ALK HTRF kinase assay
- Assay type: biochemical
- CONDITION: Table B1; cells without percent sign
pIC50: −log10 of the molar value. Structures can show the parent of a compound that is named as a salt.

# pIC50 (compound: COc1ccccc1C(=O)Nc1ccc2cc1CCc1cccc(c1)Nc1ncc(Cl)c(n1)N2 [Example B36, trifluoroacetate] ) is < 6.00

For record Clc1cnc2nc1Nc1cc(cc(CN3CCN(Cc4cc(Br)cs4)CC3)c1)CCc1cccc(c1)N2 [Example B196, tris(trifluoroacetate)] the listed pIC50 is < 5.00

pIC50 for O=C(Nc1ccc(F)c(Cl)c1)c1cc2cc(c1)Nc1nc(ncc1Cl)Nc1cccc(c1)CC2 [Example B7, trifluoroacetate] is < 5.00

O=C(Nc1cc2cc(c1)Nc1nc(ncc1Cl)Nc1cccc(c1)CC2)c1ccccn1 [Example B201, trifluoroacetate] has a reported pIC50 of < 5.00

Entry under test: Cn1ccc(C(=O)Nc2cc3cc(c2)Nc2nc(ncc2Cl)Nc2cccc(c2)CC3)n1 [Example B207, trifluoroacetate] . Its pIC50 was < 5.00

For this compound ( COc1cccc(CN2CCN(Cc3cc4cc(c3)Nc3nc(ncc3Cl)Nc3cccc(c3)CC4)CC2)c1 [Example B198, tris(trifluoroacetate)] ), measured pIC50 is < 5.00
